These entries and their values trace back to patent US6096504A.

# EXPERIMENTAL DETAILS: GST conjugation of 1,2-epoxy-3-(p-nitrophenoxy)propane with glutathione (HPLC)
# Format: biochemical
# ASSAY CONTEXT: purified enzyme, 0.4 mM electrophilic substrate, 4 mM glutathione, 0.1 M MOPS pH 7.0
Collected activity of enzyme with 1,2-epoxy-3-(p-nitrophenoxy)propane values appear next to each entry.
I'd appreciate it if you included the unit after the number.

m.15.5.d06.sk20: maize class II GST enzyme encoded by cDNA clone, expressed in E. coli (protein) MAEVEATVGRLMLYSYWRSSCSHRARIALNLKGVDYEYKAVNLLKGEQSDPEFVKLNPMKFVPALVDGSSVIGDSYAITLYLEDKYPEPPLLPQDLQKKALNHQIASIVASGIQPLHNLTVLRFIDQKVGAGESVLWTQQQIERGFTAIENLIQLKGCAGKYATGDEVQLADVFLAPQIYAAIERTKIDMSNYLTLARLHSEYMSHPAFEAALPGKQPDAPSSS	1 nmol/min/mg

The value of activity of enzyme with 1,2-epoxy-3-(p-nitrophenoxy)propane measured for the molecule ceb5.pk0051.f8: maize class III GST enzyme encoded by cDNA clone, expressed in E. coli (protein) MAGETKKGLVLLDFWVSPFGQRCRIALAEKGIAYEYSEQELLGGAKSDILLRSNPVHKKIPVLLHDGRPVCESLVILEYLEEAFPEASPRLLPDAAYARAQARFWAAYSDKVYKAGTRLWKLRGDARAQARAEIVQVVRNLDGELGDKAFFGGEAFGFVDVALVPFVPWLPSYERYGDFSVAEIAPRLAAWARRCAQRESVARTLHPPEKVDEFINLLKKTYGIE turned out to be 14 nmol/min/mg
